testedTarget: T1, human C1s (human, UniProt P09871 16-688)
T1 construct: also called hC1s; serum-derived human C1s (CompTech)
T1 sequence: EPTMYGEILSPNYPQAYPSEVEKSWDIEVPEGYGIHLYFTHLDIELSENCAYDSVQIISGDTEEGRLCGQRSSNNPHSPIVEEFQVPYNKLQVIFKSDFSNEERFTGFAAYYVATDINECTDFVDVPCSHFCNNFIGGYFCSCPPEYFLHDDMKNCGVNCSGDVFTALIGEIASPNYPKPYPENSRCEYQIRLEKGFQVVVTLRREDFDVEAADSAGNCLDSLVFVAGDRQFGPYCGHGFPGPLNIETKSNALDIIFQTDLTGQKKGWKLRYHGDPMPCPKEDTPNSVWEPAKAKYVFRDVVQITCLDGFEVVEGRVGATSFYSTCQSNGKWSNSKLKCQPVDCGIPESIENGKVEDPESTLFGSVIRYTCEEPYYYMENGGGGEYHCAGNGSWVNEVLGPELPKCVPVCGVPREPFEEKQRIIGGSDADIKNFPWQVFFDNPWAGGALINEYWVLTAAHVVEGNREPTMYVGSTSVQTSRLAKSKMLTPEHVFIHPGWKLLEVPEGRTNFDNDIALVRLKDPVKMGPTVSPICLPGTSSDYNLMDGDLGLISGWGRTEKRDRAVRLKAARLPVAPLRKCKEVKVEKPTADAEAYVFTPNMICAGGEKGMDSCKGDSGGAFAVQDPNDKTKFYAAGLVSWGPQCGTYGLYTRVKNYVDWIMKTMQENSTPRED
protocolDetails: SPR; KD pH 5.8 1.2 mM Ca / KD pH 7.4 1.2 mM Ca
Consider the following binders; for each one, report its KD 5(+)/7(+).
API doc: respond with a numeric literal and nothing else, no unit.

Q: Give the reported value of KD 5(+)/7(+) for this record: C1_IPN92H0033-SG4GK/IPN93L0028-SK1 (antibody, human IgG4 S228P, kappa, name in Kabat numbering, V domains shown, also called IPN92H0033/IPN93L0028) VH: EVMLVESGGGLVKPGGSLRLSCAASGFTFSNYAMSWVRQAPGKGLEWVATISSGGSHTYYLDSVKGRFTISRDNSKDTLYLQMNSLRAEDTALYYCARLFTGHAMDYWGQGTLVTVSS VL: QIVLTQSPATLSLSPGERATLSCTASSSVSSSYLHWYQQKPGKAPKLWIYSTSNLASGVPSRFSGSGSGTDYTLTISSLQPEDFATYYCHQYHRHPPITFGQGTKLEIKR
Ans: 3.1

Q: Indicate the recorded KD 5(+)/7(+) value for this binder: C1_IPN92H0038-SG4GK/IPN93L0023-SK1 (antibody, human IgG4 S228P, kappa, name in Kabat numbering, V domains shown, also called IPN92H0038/IPN93L0023) VH: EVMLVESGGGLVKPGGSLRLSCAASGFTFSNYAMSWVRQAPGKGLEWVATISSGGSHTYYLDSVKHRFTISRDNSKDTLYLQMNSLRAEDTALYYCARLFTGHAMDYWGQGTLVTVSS VL: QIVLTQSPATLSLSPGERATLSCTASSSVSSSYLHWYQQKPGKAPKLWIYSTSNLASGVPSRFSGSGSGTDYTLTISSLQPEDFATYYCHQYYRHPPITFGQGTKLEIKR
Ans: 2.8

Q: Provide KD 5(+)/7(+) value for the following binder: C1_IPN92H0038-SG4GK/IPN93L0031-SK1 (antibody, human IgG4 S228P, kappa, name in Kabat numbering, V domains shown, also called IPN92H0038/IPN93L0031) VH: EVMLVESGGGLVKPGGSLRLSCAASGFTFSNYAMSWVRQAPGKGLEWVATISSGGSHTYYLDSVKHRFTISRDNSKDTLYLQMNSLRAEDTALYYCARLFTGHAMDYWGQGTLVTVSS VL: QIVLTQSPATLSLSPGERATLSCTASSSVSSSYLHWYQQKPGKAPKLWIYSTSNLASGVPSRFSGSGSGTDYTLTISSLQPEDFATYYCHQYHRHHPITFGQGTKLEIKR
Ans: 0.2

Q: Identify measured KD 5(+)/7(+) associated with C1_IPN009VH2-SG4GK/IPN93L0031-SK1 (antibody, human IgG4 S228P, kappa, name in Kabat numbering, V domains shown, also called IPN009VH2/IPN93L0031) VH: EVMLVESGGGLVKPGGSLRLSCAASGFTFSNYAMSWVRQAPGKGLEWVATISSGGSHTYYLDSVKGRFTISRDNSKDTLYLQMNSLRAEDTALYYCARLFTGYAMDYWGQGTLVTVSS VL: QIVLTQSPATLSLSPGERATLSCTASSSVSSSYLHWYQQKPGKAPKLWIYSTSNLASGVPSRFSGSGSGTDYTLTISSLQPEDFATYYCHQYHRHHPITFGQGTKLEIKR
Ans: 142

Q: Let me know recorded KD 5(+)/7(+) for C1_IPN92H0038-SG4GK/IPN93L0021-SK1 (antibody, human IgG4 S228P, kappa, name in Kabat numbering, V domains shown, also called IPN92H0038/IPN93L0021) VH: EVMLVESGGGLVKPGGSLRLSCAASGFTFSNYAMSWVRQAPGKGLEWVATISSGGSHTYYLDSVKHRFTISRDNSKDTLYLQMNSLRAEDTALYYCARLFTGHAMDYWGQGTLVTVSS VL: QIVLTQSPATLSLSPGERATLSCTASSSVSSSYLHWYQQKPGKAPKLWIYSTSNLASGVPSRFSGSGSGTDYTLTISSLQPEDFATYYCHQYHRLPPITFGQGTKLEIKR , thanks.
Ans: 3.7
